test system: agrégation plaquettaire induite par le collagène; assay: In vitro collagen-induced platelet aggregation in platelet-rich plasma (Born turbidimetric technique); format: cell-based, humain; conditions: 10 min, read-out: concentration qui inhibe à 50 % l'agrégation plaquettaire
value-kind: IC50

* CC(C)N(CCC(C(N)=O)(c1ccccn1)n1cccc1)C(C)C (stereo not shown) [CM 7954] | ~100 µM
